# System: M19-MEL
# PROTOCOL NOTES: NCI tumour cell line growth inhibition, 48 h
Calls of active or inactive are those of the source. No stated cut-off is given here; in the data, active = GI50 up to about 1.1 µM and inactive = higher.
READOUT LABEL: GI50

GI50 of "O=C(O)c1ccc(O)c(/N=N/c2cc(S(=O)(=O)O)c3ccccc3c2O)c1" , assay on M19-MEL, is 55.6 µM (inactive)

GI50 of N#CC(C(=N/O)/C(=N\O)C(C#N)c1ccccc1)c1ccccc1 (stereo not given) , assay on M19-MEL, is 99.1 µM (inactive)

GI50 of "COc1ccc2c(c1)[n+]([O-])c(-c1ccc(OC)c(OC)c1)c(N)[n+]2[O-]" , assay on M19-MEL, is 54.6 µM (inactive)

GI50 of "O=C(CSSCC(=O)OCCS(=O)(=O)Nc1ccc(Br)cc1)OCCS(=O)(=O)Nc1ccc(Br)cc1" , assay on M19-MEL, is 15.1 µM (inactive)

GI50 of "O=C(O)/C(=C\c1ccccc1Cl)S(=O)(=O)c1ccccc1" , assay on M19-MEL, is > 100 µM (inactive)

GI50 of "Cc1ccccc1-n1c(=O)sc2c(=O)n(-c3ccccc3)c(=S)[nH]c21" , assay on M19-MEL, is > 100 µM (inactive)

GI50 of "CCN(CC)/[N+]([O-])=N/O" , assay on M19-MEL, is > 100 µM (inactive)

GI50 of "CCCSS[C@H]1NC(=O)[C@H]1NC(=O)COc1ccccc1" , assay on M19-MEL, is 17.9 µM (inactive)

GI50 of O=C(CC(=O)C1CCOC1=O)C(=O)Nc1ccc(Cl)cc1 (stereo not given) , assay on M19-MEL, is > 100 µM (inactive)

GI50 of "CC1=C(C(=O)Nc2ccccc2C)C(c2ccccc2O)C(C(=O)Nc2ccccc2C)=C(C)N1" , assay on M19-MEL, is 21 µM (inactive)

###

# Tested on: SNB-78
# PROTOCOL NOTES: NCI tumour cell line growth inhibition, 48 h
The source made the active and inactive calls. Rule as the data show it: active = GI50 up to about 1.1 µM and inactive = higher.
READOUT LABEL: GI50

CCOc1ccc(NC(=O)CC2SC(Nc3ccc(C)cc3)=NC2=O)cc1 (stereo not given) yielded GI50 of > 100 µM (inactive)

"O=C(NNC(=S)Nc1ccccc1)c1nsc2ccccc12" yielded GI50 of 47.9 µM (inactive)

"O=C1c2ccc(O)c(O)c2C(=O)c2c(O)ccc(O)c21" yielded GI50 of 41.3 µM (inactive)

"O=C1C(Nc2ccc(S(=O)(=O)Nc3cnc4ccccc4n3)cc2)=C/C(=N\c2ccc(S(=O)(=O)Nc3cnc4ccccc4n3)cc2)c2ccccc21" yielded GI50 of 22.5 µM (inactive)

"Nc1ccc2nc(NCc3ccc(F)cc3)cnc2c1" yielded GI50 of 75.7 µM (inactive)

###

# Tested on: 786-0
# PROTOCOL NOTES: NCI tumour cell line growth inhibition, 48 h
Calls of active or inactive are those of the source. No stated cut-off is given here; in the data, active = GI50 up to about 1.1 µM and inactive = higher.
READOUT LABEL: GI50

"CCOC(=O)COc1cccc2c1C(=O)CCO2" yielded GI50 of > 100 µM (inactive)

"C=CCO/N=C/c1cc(/N=C(/S)c2ccoc2C)ccc1Cl" yielded GI50 of 22.6 µM (inactive)

"N#Cc1c(NCCc2ccc(F)cc2)c2ccccc2n2c1nc1ccccc12" yielded GI50 of 4.46 µM (inactive)

C[N+](C)(C)CCN[N+]1(C)CCCc2ccccc21 (stereo unspecified) yielded GI50 of 33.3 µM (inactive)

CC12CCC3c4ccc(O)cc4CCC3C1C/C(=N\O)C2O (stereo unspecified) yielded GI50 of > 100 µM (inactive)

"CCN(CC)C(=O)c1cccc2c(OC)ccc(OC)c12" yielded GI50 of > 100 µM (inactive)

###

# System: HCT-15
Please provide measured GI50 for the entries that follow.
Unit µM implied. Number only.

GI50 of CCC1c2[nH]c3ccccc3c2C[C@H]2C(=O)NC(Cc3ccccc3)C(=O)N12 (stereo not given in full) , assay on HCT-15, is 35

GI50 of COc1cccc(C2c3cc4c(cc3OC(NNS(=O)(=O)c3ccc(C)cc3)C2C)OCO4)c1O (stereo not given) , assay on HCT-15, is 23.5

GI50 of "CN(C)CC[N+]1=Nc2cccc3cccc(c23)N1" , assay on HCT-15, is 62.7

GI50 of "N/C(S)=N/N=C/c1cc(CN2CCOCC2)c(N)cn1" , assay on HCT-15, is 15

GI50 of "N#Cc1c(NCCc2ccc(F)cc2)c2ccccc2n2c1nc1ccccc12" , assay on HCT-15, is 28.4

GI50 of C/C=C/C1(NS(=O)(=O)c2ccc(C)cc2)CCC(C(C)(C)C)CC1 (stereo not given) , assay on HCT-15, is 28.6

GI50 of "O=S(=O)(O)c1cc(/N=N/c2cc(S(=O)(=O)O)c3ccccc3c2O)ccc1/C=C/c1ccc(/N=N/c2cc(S(=O)(=O)O)c3ccccc3c2O)cc1S(=O)(=O)O" , assay on HCT-15, is 98.6

###

Please provide measured GI50 for the entries that follow.
# Test system: BT-549
# PROTOCOL NOTES: NCI tumour cell line growth inhibition, 48 h
The source made the active and inactive calls. Rule as the data show it: active = GI50 up to about 1.1 µM and inactive = higher.

"O=S(=O)(O)Oc1cc2c(c(OS(=O)(=O)O)c1)C[C@H](OS(=O)(=O)O)[C@@H](c1ccc(OS(=O)(=O)O)c(OS(=O)(=O)O)c1)O2" yielded GI50 of > 100 µM (inactive)

CC(C)(CN1CCCCC1)C(=O)CC(SCCS(=O)(=O)O)c1ccc(Cl)c(Cl)c1 (stereo not given) yielded GI50 of 2.9 µM (inactive)

CC1(C)OC2OC(C(COS(=O)(=O)C(F)(F)F)N=[N+]=[N-])C(OC(=O)c3ccccc3)C2O1 (stereo not given) yielded GI50 of > 100 µM (inactive)

CCCCCC(C(O)C#N)C(O)(C(F)(F)F)C(F)(F)F (stereo not given) yielded GI50 of > 10 µM (inactive)

OC(C1=C/C(=C\c2ccncc2)c2ccccc21)c1ccncc1 (stereo not given) yielded GI50 of 19 µM (inactive)

"NC(=O)N/N=C1\CCCCc2ccccc21" yielded GI50 of > 10 µM (inactive)

"COc1cnnc2c(C)c(-c3ccccc3)nn12" yielded GI50 of > 100 µM (inactive)

COC(=O)C1=C(O)CCCC(C2CCCCC(=O)C2C(=O)OC)=C1 (stereo not given) yielded GI50 of 78.9 µM (inactive)

CN(C)CCNC1=Nc2ccccc2C(=O)N2CSCC12 (stereo not given) yielded GI50 of > 100 µM (inactive)

"O=C(OCCN=C1c2ccccc2CCc2ccccc21)c1cc([N+](=O)[O-])cc([N+](=O)[O-])c1" yielded GI50 of > 100 µM (inactive)

###

# System: SK-OV-3
# PROTOCOL NOTES: NCI tumour cell line growth inhibition, 48 h
Calls of active or inactive are those of the source. Cut-off read from the data, not from the text of the source: active = GI50 up to about 1.1 µM and inactive = higher.
READOUT LABEL: GI50

GI50 of "COC(=O)c1cccc(COc2ccc([N+](=O)[O-])cc2Cl)c1" , assay on SK-OV-3, is > 100 µM (inactive)

GI50 of "COc1ccc(CN2CC(C)(C)C2=O)c(OC)c1" , assay on SK-OV-3, is > 100 µM (inactive)

GI50 of Cc1cc([N+](=O)[O-])ccc1NC(=O)C(=O)C(C(=O)c1ccccc1-c1ccccc1)C1OC(=O)c2ccccc21 (stereo not given) , assay on SK-OV-3, is 22.7 µM (inactive)

GI50 of COC(=O)N/N=C(\C)C(CN1CCOCC1)C(c1ccccc1)c1cc2ccccc2oc1=O (stereo not given) , assay on SK-OV-3, is > 100 µM (inactive)

GI50 of "CCN(CC)/[N+]([O-])=N/O" , assay on SK-OV-3, is > 100 µM (inactive)

GI50 of CC1=CC(O)(c2ccccc2)C(N2CCOCC2)N1O (stereo not given) , assay on SK-OV-3, is > 100 µM (inactive)

GI50 of "O=C1/C(=C/c2cccc([N+](=O)[O-])c2)N=C(c2ccccc2)N1c1nc2c(Cl)cc(Cl)cc2s1" , assay on SK-OV-3, is 31.2 µM (inactive)

GI50 of "COc1cc(C(=O)N(C(=S)OC23CC4CC(CC(C4)C2)C3)c2ccccc2)cc(OC)c1OC" , assay on SK-OV-3, is 25.8 µM (inactive)

GI50 of "COC(=O)/C=C(/C(=O)OC)c1c(C)cc2c(C)cc(C)cc(C)c1-2" , assay on SK-OV-3, is 21.5 µM (inactive)

GI50 of "COC(=O)CN(C)P(=O)(N1CC1)N1CC1" , assay on SK-OV-3, is > 100 µM (inactive)

###

# System: SK-MEL-2
# PROTOCOL NOTES: NCI tumour cell line growth inhibition, 48 h
Activity calls are given as the source filed them. No stated cut-off is given here; in the data, active = GI50 up to about 1.1 µM and inactive = higher.
Assign a class; possible classes are active, inactive

# input Recorded call for "OCCOCn1nncc1Cn1ncc2c(O)ncnc21" ?
# output inactive

# input Recorded call for "COc1ccccc1NC(=S)NNC(=O)c1cc(-c2ccccc2)nc2ccccc12" ?
# output inactive

# input Recorded call for "Cc1ccc(-c2ccc(Nc3c4ccccc4nc4ccccc34)cc2)cn1" ?
# output inactive

# input Recorded call for "N=C1N(S(=O)(=O)c2ccccc2)[C@@H](Cc2ccccc2)[C@H](c2ccccc2)C1(c1ccccc1)c1ccccc1" ?
# output inactive

# input Recorded call for CCOC(=O)CCC(NC(=O)c1ccc(N2CCN(c3c(C)nc(N)nc3N)CC2)cc1)C(=O)OCC (configuration not stated) ?
# output inactive

# input Recorded call for "COC(=O)C1=COc2c(n(C)c3ccccc23)-c2ccccc21" ?
# output inactive

# input Recorded call for "CCc1n[nH]c(=O)n1/N=C/c1ccccc1Cl" ?
# output inactive

# input Recorded call for COC(=O)CCC(NC(=S)N/N=C(\C)c1ccco1)C(=O)OC (configuration not stated) ?
# output inactive

# input Recorded call for O=C(CC(=O)C1CCOC1=O)C(=O)Nc1ccc(Cl)cc1 (configuration not stated) ?
# output inactive

# input Recorded call for "O=C(N/N=C\c1cccc2c([N+](=O)[O-])cccc12)Nc1ccccc1" ?
# output inactive

# input Recorded call for CC1CCC(C(C)C)C(OC(=O)NCn2cc(-c3ccccc3)nn2)C1 (configuration not stated) ?
# output inactive

# input Recorded call for "CC(=O)O[C@H]1C(=O)N(c2cc3c4ccccc4ccc3c3ccccc23)[C@@H]1c1ccccc1" ?
# output inactive

# input Recorded call for Cc1cc([N+](=O)[O-])ccc1NC(=O)C(=O)C(C(=O)c1ccccc1-c1ccccc1)C1OC(=O)c2ccccc21 (configuration not stated) ?
# output inactive

# input Recorded call for "COc1cccc(-c2cccc(SC)n2)n1" ?
# output inactive

# input Recorded call for "NCCCN(CCCN(C(=O)Nc1ccccc1)c1ccccc1)C(=O)Nc1ccccc1" ?
# output inactive

# input Recorded call for COc1ncnc2c1cnn2Cc1cn(COCC(O)CO)nn1 (configuration not stated) ?
# output inactive

# input Recorded call for NC1CC(=O)c2c1sc(Cl)c2Cl (configuration not stated) ?
# output inactive

# input Recorded call for "COc1nc(O)nc2c1C(c1ccc([N+](=O)[O-])cc1)c1c(OC)nc(O)nc1O2" ?
# output inactive

# input Recorded call for "O[C@H]1[C@H]2[C@H](O)CCCN2C[C@H]1O" ?
# output inactive

# input Recorded call for CCCC(=O)Nc1cc(/C=C/C(=O)N2CC(CCl)c3ccc(N)cc32)n(C)c1 (configuration not stated) ?
# output active

# input Recorded call for "O=C(O)/C(=C\c1ccccc1Cl)S(=O)(=O)c1ccccc1" ?
# output inactive

# input Recorded call for "NC(=O)N/N=C1\CCCCc2ccccc21" ?
# output inactive
